Test: Toxicokinetics in Beagle dogs, 7 day repeat oral administration
Format: in vivo
Conditions: male, Beagle, dog, plasma, po, 20 mg/kg, 20 mg/kg PO BID, Day7, Male, Subject 1
Description: To understand its toxicokinetics and potential effect on hepatic functions, EXAMPLE 23 was orally dosed to Beagle dogs for 7 consecutive days.
PARAMETER: Cmax (ng/mL)
Reply numerically in ng/mL, unit not repeated.

Look at this compound and give its reported Cmax. CC(C)CN(c1ccc([C@H](C)CC(=O)O)cc1Nc1nnc(C2CC2)s1)C1CCOCC1 [Example 23]
6300

###

molecular target: indoleamine 2, 3-dioxygenase (IDO1) (Homo sapiens); experiment: IDO1 PBMC RapidFire MS assay (kynurenine detection by mass spectrometry); format: cell-based; parameters: to induce the expression of indoleamine 2, 3-dioxygenase (IDO1); host or cells: human PBMC stimulated with IFN-gamma and LPS; settings: human PBMC stimulated with IFN-γ and LPS, 2 days, pIC50, read-out: PBMC PXC50 (converted)
Sequence (P14902 whole entry): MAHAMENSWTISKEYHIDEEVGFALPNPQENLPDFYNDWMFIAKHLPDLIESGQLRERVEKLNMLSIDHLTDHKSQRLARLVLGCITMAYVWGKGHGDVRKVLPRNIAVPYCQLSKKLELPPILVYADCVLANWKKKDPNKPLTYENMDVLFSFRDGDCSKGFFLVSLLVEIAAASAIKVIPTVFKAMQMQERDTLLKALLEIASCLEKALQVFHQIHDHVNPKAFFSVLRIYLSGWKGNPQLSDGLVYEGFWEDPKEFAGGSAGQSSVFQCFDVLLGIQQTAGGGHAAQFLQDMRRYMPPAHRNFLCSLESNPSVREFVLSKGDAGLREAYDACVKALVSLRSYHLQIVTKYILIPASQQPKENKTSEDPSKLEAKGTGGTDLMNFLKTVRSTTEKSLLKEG
PARAMETER: IC50 (nM)
Field: numeric (nM). Do not append units.

Which IC50 is reported for this compound? CC(C)CN(c1ccc([C@H](C)CC(=O)O)cc1Nc1cnc(C#N)nc1)C1CCOCC1
2

State the recorded IC50 for this entry: CC(C)CN(c1ccc(-c2ccccc2C(=O)O)cc1Nc1nc(C(F)(F)F)ns1)C1CCN(c2nc(C(F)(F)F)ns2)CC1
1

I have this compound here, CC(C)CN(c1ccc([C@H](C)CC(=O)O)cc1Nc1ccc(Cl)nn1)[C@H]1CC[C@H](O)CC1 , and I need its recorded IC50.
5.01

Look at this compound and give its reported IC50. CC(C)CN(c1ccc([C@H](C)CC(=O)O)cc1Nc1cnc(C(F)(F)F)nc1)C1CCOCC1
1

Please look up its IC50: CC(C)CN(c1ccc([C@H](C)CC(=O)O)cc1Nc1ccc(Cl)cn1)C1CCOCC1
0.794

Dear colleague, I am looking for the recorded IC50 of the following compound: CC(C)CN(c1ccc([C@H](C)CC(=O)O)cc1Nc1nnc(C2CC2)[nH]1)C1CCOCC1
39.8

Which IC50 is reported for this compound? CO[C@H]1CC[C@@H](N(CC(C)C)c2ccc([C@H](C)CC(=O)O)cc2Nc2n[nH]c(C3CC3)n2)CC1
6.31
